# Tested on: SK-MEL-5 melanoma
# Protocol Description: NCI-60 one-dose screen, 48 h
# Test Parameters: 10 µM unless noted
This is part of a sample that, as a whole, favours compounds with a hit. Of some 83,000 tested, about 20% had one in any assay. The source made the active and inactive calls. Rule for the calls: active = growth percent below 10; inactive = the rest.
Pick one: y for active, n for inactive

As a guide, the following entries are already answered.
>>> assigned_class("O=C(Nc1cc(C(F)(F)F)cc(C(F)(F)F)c1)c1cc(Cl)ccc1O")
"y"
>>> assigned_class("Cn1cc(-c2nonc2-c2cn(C)c3ccc(Br)cc23)c2ccccc21")
"n"
>>> assigned_class("CC(C)=CCc1cc(O)c(O)c2oc3cc(O)cc(O)c3c(=O)c12")
"n"
>>> assigned_class("COc1cc(CO)cc2cc3ccccc3nc12")
"n"
>>> assigned_class("COc1cc(CNC(=O)CCCC/C=C/C(C)C)ccc1OCc1cn(-c2ccc([N+](=O)[O-])cc2)nn1")
"n"

Exercise: Just curious, what result did "Clc1ccc2c(NCCN3CCN(c4ccnc(N5CCCC5)n4)CC3)ccnc2c1" get here?
Solution: y

Exercise: Just curious, what result did "N#Cc1c(N)nnn1Cc1cc(=O)oc2ccc(O)cc12" get here?
Solution: n

Exercise: Just curious, what result did "O=C(Oc1ccc(CO[N+](=O)[O-])cc1)c1ccccc1" get here?
Solution: y

Hello, the source for this data is PubChem BioAssay (NCI), in case you need it.
